- assayTarget: CDK4/Cyclin D1 (Homo sapiens, UniProt P11802)
- Sequence (P11802 whole entry): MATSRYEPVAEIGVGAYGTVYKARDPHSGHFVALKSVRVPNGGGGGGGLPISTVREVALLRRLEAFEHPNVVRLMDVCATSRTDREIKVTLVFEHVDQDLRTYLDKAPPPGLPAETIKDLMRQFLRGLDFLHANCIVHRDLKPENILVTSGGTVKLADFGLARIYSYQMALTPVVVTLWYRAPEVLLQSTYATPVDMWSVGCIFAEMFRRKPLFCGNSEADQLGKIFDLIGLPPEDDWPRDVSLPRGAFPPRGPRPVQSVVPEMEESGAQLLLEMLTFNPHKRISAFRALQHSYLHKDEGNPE
- Sequence (P24385 whole entry partner): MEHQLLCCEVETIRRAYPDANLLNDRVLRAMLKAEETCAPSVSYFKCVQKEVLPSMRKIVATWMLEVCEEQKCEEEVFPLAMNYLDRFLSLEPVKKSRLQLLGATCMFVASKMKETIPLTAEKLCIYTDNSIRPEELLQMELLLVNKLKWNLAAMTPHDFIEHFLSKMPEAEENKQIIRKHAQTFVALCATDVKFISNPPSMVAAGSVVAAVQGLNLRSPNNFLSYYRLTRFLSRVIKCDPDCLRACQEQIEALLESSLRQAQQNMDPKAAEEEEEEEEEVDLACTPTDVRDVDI
- assaySummary: NanoBRET live-cell target engagement, NanoLuc-CDK4/Cyclin D1 in HEK-293
- Format: binding
- setupConditions: 10µM; independent experiment 2; read-out: CDK4/D1 Inhibition at 10µM (%)
valueKind: inhibition at 10 µM (%)

> print(dat)
                                  structure  unitannotation  observedmeasurement
1  CN1CCN(c2ccc(Nc3ncc4cc5n(c4n3)C3(CCCCC3)CNC5=O)nc2)CC1               %                 88.9
2  COCCN1CCN(Cc2ccc(-c3n[nH]c4c3C(=O)c3c(NC(=O)NN5CCOCC5)cccc3-4)cc2)CC1               %                  100
3  CN1C/C=C/CCOc2cccc(c2)-c2ccnc(n2)Nc2cccc(c2)C1               %                 99.2
4  CC[C@H](CO)Nc1nc(NCc2ccccc2)c2ncn(C(C)C)c2n1               %                -35.9
5  CN(C)C(=O)c1cc2cnc(Nc3ccc(N4CCNCC4)cn3)nc2n1C1CCCC1               %                   87
6  CN(C)C/C=C/C(=O)Nc1ccc(C(=O)N2CCC[C@@H](Nc3ncc(Cl)c(-c4c[nH]c5ccccc45)n3)C2)cc1               %                 61.5
7  CC(C)CC(=O)Nc1[nH]nc2c1CN(C(=O)C1CCN(C)CC1)C2(C)C               %                 83.8
8  CC(C)[C@H](CO)Nc1nc(Nc2ccc(C(=O)O)c(Cl)c2)c2ncn(C(C)C)c2n1               %                -82.7

---

- assayTarget: CDK15/Cyclin Y (Homo sapiens, UniProt Q96Q40)
- Sequence (Q96Q40 whole entry): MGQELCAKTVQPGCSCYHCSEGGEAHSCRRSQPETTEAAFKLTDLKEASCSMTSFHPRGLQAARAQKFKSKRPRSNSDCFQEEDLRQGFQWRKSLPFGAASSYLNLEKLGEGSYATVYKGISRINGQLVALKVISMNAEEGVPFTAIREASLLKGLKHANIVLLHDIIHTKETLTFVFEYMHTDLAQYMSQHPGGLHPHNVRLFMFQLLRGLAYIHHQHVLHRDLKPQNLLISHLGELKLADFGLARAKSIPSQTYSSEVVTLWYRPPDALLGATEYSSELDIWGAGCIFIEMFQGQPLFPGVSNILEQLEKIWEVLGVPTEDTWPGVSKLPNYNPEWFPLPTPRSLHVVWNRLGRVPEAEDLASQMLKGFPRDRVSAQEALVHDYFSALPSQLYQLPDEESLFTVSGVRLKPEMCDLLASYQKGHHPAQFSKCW
- Sequence (Q8ND76 whole entry partner): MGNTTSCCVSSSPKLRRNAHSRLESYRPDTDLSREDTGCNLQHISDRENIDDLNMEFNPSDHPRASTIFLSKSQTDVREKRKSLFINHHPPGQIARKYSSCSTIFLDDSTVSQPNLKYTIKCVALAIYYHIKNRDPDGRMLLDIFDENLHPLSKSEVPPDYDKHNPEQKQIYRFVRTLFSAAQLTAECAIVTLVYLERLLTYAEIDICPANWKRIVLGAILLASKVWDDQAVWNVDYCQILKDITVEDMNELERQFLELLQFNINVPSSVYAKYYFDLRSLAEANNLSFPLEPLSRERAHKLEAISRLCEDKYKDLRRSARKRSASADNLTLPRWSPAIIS
- assaySummary: NanoBRET live-cell target engagement, NanoLuc-CDK15/Cyclin Y in HEK-293
- Type: binding
- setupConditions: CDK15/Y; experiment 1
Binary classification by Inhibition at 10µM (%), with 90% as an inclusive lower bound for label 1; all other cases are label 0.

> print(dat)
                                   compound                               assaytarget  labelvalue
1  CC(C)c1c2cc(-c3ccnc(N[C@H]4CC[C@H](NC5CCOCC5)CC4)n3)ccc2nn1C  CDK15/Cyclin Y (Homo sapiens, UniProt Q96Q40)     label 1
2  CC(C)c1cnn2c(NCc3ccccc3-n3cccn3)nc(OC3CCCNC3)nc12 (stereo not drawn)  CDK15/Cyclin Y (Homo sapiens, UniProt Q96Q40)     label 1
3  CCn1cnc2c(Nc3cccc(Cl)c3)nc(N[C@@H]3CCCC[C@@H]3N)nc21 [CGP74514A]  CDK15/Cyclin Y (Homo sapiens, UniProt Q96Q40)     label 0
4  CS(=O)(=O)N1CCC(NC(=O)c2[nH]ncc2NC(=O)c2c(Cl)cccc2Cl)CC1  CDK15/Cyclin Y (Homo sapiens, UniProt Q96Q40)     label 1
5  CN1CCC(c2c(O)cc(O)c3c(=O)cc(-c4ccccc4Cl)oc23)C1CO (stereo not drawn)  CDK15/Cyclin Y (Homo sapiens, UniProt Q96Q40)     label 0
